# system: Vascular endothelial growth factor receptor 2 (Homo sapiens, UniProt P35968)
# Sequence (P35968 whole entry): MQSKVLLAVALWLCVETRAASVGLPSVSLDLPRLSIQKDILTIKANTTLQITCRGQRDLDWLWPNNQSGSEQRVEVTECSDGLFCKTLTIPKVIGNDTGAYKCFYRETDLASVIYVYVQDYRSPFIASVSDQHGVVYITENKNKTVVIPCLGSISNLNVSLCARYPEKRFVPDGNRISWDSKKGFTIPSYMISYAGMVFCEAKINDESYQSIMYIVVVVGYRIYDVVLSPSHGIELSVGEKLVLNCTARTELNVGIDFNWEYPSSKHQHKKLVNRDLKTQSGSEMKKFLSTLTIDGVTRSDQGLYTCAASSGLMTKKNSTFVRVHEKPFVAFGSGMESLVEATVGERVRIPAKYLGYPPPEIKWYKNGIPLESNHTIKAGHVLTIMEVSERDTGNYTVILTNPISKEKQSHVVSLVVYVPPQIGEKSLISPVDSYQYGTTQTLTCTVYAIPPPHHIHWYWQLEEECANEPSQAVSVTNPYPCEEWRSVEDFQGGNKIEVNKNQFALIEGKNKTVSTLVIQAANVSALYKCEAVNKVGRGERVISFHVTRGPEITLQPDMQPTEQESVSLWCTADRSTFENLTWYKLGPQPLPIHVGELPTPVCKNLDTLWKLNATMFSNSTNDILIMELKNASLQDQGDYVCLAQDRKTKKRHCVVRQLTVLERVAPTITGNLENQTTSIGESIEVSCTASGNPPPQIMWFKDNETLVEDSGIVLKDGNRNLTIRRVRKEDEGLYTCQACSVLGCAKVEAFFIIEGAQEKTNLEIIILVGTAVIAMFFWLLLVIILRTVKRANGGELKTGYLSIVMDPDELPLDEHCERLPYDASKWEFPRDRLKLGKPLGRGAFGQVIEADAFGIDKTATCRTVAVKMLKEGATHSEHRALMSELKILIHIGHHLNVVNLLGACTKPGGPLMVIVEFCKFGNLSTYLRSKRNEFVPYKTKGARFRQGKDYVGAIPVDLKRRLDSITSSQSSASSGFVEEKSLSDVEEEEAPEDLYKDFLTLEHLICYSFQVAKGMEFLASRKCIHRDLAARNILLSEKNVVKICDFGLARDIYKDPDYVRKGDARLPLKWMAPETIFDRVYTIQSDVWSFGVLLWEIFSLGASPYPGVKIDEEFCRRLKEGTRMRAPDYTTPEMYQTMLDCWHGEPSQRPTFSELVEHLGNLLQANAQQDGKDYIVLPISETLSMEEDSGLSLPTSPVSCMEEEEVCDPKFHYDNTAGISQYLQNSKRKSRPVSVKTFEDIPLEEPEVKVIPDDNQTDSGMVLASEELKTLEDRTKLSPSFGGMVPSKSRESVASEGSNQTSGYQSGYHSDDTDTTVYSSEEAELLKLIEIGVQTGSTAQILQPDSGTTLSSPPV
outcome measure: pIC50
Scale for pIC50: -log10 of concentration given in mol/L; no unit attached.

Query: Give recorded pIC50 with Vascular endothelial growth factor receptor 2 (Homo sapiens, UniProt P35968) for the following compound: "CNC(=O)c1ncc(C#Cc2cc(C(=O)Nc3ccc(CN4CCN(CCO)CC4)c(C(F)(F)F)c3)ccc2C)n1C"
Response: 8.64

----------
# assay: cells
# condition notes: Mus musculus, BaF3
outcome measure: IC50

Query: State the recorded IC50 for this entry: "Cc1ccc(C(=O)Nc2ccc(CN3CCN(CC(=O)O)CC3)c(C(F)(F)F)c2)cc1C#Cc1cnc(C(N)=O)n1C"
Response: 0.064 µM

Query: Further, for "Cc1ccc(C(=O)Nc2ccc(CN3CCN(C)CC3)c(C(F)(F)F)c2)cc1C#Cc1cccnc1" ?
Response: 0.0455 µM

Query: And for "CNC(=O)c1ncc(C#Cc2cc(C(=O)Nc3ccc(CN4CCN(C)CC4)c(C(F)(F)F)c3)ccc2C)n1C" ?
Response: 0.004 µM

Query: // same read-out, input: "Cc1ccc(C(=O)Nc2ccc(CN3CCN(C)CC3)c(C(F)(F)F)c2)cc1C#Cc1cnc(C(N)=O)n1C"
Response: 0.0076 µM

Query: // same read-out, input: "Cc1ccc(C(=O)Nc2ccc(CN3CCN(CCO)CC3)c(C(F)(F)F)c2)cc1C#Cc1cnc(C(N)=O)n1C"
Response: 0.0058 µM

Query: Consider next the compound "Cc1ccc(C(=O)Nc2ccc(CN3CCN(C)CC3)c(C(F)(F)F)c2)cc1C#Cc1cnc(C(=O)NCCO)n1C" in the same way.
Response: 0.064 µM

Query: For "Cc1ccc(C(=O)Nc2ccc(CN3CCN(C)CC3)c(C(F)(F)F)c2)cc1C#Cc1cncn1C" then?
Response: 0.709 µM

Query: Moving on to "Cc1ccc(C(=O)Nc2ccc(CN3CCN(C)CC3)c(C(F)(F)F)c2)cc1C#Cc1cnc(NC2CC2)nc1"
Response: 0.519 µM
